Recorded pIC50 values for a group of molecules are listed next.
- measured-target: mouse GnRH receptor (Mus musculus)
- Construct: expressed in transfected cells; host or cells: 293 cells
- Sequence (Q01776 whole entry): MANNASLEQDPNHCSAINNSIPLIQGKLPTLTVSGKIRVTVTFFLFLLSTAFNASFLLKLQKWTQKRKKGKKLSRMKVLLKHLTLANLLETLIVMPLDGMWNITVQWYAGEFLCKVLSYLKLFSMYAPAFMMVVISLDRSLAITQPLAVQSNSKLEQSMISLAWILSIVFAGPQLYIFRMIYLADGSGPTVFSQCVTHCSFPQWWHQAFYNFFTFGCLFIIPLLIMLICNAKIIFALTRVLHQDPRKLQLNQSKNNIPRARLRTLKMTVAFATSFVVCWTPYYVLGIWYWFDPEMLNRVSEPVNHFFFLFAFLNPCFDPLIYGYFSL
- assay-remarks: Radioligand binding, 125I-GnRH-A, 293 cells expressing mouse GnRH receptors
- condition-label: read-out: mGnRH IC50
Friendly reminder that pIC50 comes from taking -log10 of the concentration in mol/L.

The cases that follow already have their pIC50 on record.
molecule: COc1cc(CO)cc(OC)c1NC(=O)c1ccc(Cc2cc3c(cc2C)C(C)(C)CCC3(C)C)o1
measured-parameter: pIC50
endpoint-value: 7.80
//
molecule: Cc1cc2c(cc1Cc1ccc(C(=O)NCc3ccc(F)cc3F)o1)C(C)(C)CCC2(C)C
measured-parameter: pIC50
endpoint-value: 6.18
//
molecule: Cc1ccc(CNC(=O)c2ccc(Cc3cc4c(cc3C)C(C)(C)CCC4(C)C)o2)cc1
measured-parameter: pIC50
endpoint-value: 6.54
//
molecule: Cc1cc2c(cc1Cc1ccc(C(=O)NCc3cccc(CNc4ncc(C)c(NCC5CCCO5)n4)c3)o1)C(C)(C)CCC2(C)C (stereo not drawn)
measured-parameter: pIC50
endpoint-value: 8.28
//
molecule: COc1cccc(OC)c1NC(=O)c1ccc(Cc2c(C)cc(C)c(Br)c2C)o1
measured-parameter: pIC50
endpoint-value: 6.49

Task: Endpoint output: pIC50 of CCOC(=O)[C@H]1CC[C@H](CNC(=O)c2ccc(Cc3cc4c(cc3C)C(C)(C)CCC4(C)C)o2)CC1 . Value?
Result: 5.73

Task: Queued: CCC(C)(C)c1ccc(OC)c(Cc2ccc(C(=O)Nc3c(OC)cc(OC)cc3OC)o2)c1
Result: 8.05

Task: Follow-up item: COc1cc(OC)c(NC(=O)c2ccc(Cc3c(C)cc(C)cc3C)o2)c(OC)c1
Result: 6.89

Task: Then CCOc1cccc(OCC)c1NC(=O)c1ccc(Cc2cc3c(cc2C)C(C)(C)CCC3(C)C)o1 ?
Result: 7.85

====

- measured-target: human GnRH receptor (Homo sapiens, UniProt P30968)
- Construct: expressed in transfected cells; host or cells: HEK 293 (hGnRH-R/293, from Dr. Stuart Sealfon)
- assay-remarks: Radioligand binding, 125I-GnRH-A displacement, membranes of HEK 293 cells with human GnRH receptor
- condition-label: 1 uM; read-out: % Inhib. @ 1 uM hGnRH
Items are presented alongside their recorded inhibition at 1 µM.
Give the number; % is assumed, so skip it.

Here are 2 compounds together with their reported answers.
compound: Cc1cc2c(cc1Cc1ccc(C(=O)NCc3ccccc3Sc3ccccc3CO)o1)C(C)(C)CCC2(C)C
endpoint-value: 51
--
compound: Cc1cc2c(cc1Cc1ccc(C(=O)NCc3ccc(C(F)(F)F)cc3)o1)C(C)(C)CCC2(C)C
endpoint-value: 40

Task: Entry Cc1cc2c(cc1Cc1ccc(C(=O)NCCc3ccc(-c4ccccc4)cc3)o1)C(C)(C)CCC2(C)C has what inhibition at 1 µM?
Result: -17

Task: Field entry: Cc1cc2c(cc1Cc1ccc(C(=O)N3CCN(c4nccc(NCC5CCCO5)n4)CC3)o1)C(C)(C)CCC2(C)C (centres unmarked)
Result: 22

Task: Same again, this time with Cc1cc2c(cc1Cc1ccc(C(=O)N3CCN(c4cccc(O)c4)CC3)o1)C(C)(C)CCC2(C)C
Result: -1

Task: And what about the compound Cc1cc2c(cc1Cc1ccc(C(=O)N(C)Cc3ccccc3Cl)o1)C(C)(C)CCC2(C)C ?
Result: 14

Task: One more compound: Cc1cc2c(cc1Cc1ccc(C(=O)NCCc3ccccc3Cl)o1)C(C)(C)CCC2(C)C [drawing 1104]
Result: 55

Task: Now consider Cc1cc2c(cc1Cc1ccc(C(=O)NC3CC3)o1)C(C)(C)CCC2(C)C [drawing 1149] .
Result: 49

Task: Please do the same for Cc1cc2c(cc1Cc1ccc(C(=O)NCCCNCc3ccc(Cl)cc3)o1)C(C)(C)CCC2(C)C as well.
Result: -10

Task: Similarly, Cc1cc2c(cc1Cc1ccc(C(=O)N(C)CCc3ccccn3)o1)C(C)(C)CCC2(C)C ?
Result: -11

Task: // same read-out, input: Cc1cc2c(cc1Cc1ccc(C(=O)NCc3ccccc3C(F)(F)F)o1)C(C)(C)CCC2(C)C [drawing 997]
Result: 11

Task: What do you get for Cc1cc2c(cc1Cc1ccc(C(=O)NCc3ccc(C(=O)O)cc3)o1)C(C)(C)CCC2(C)C [drawing 1016] ?
Result: 44

Task: Moving on to the next compound: CCCCN(Cc1ccccc1)C(=O)c1ccc(Cc2cc3c(cc2C)C(C)(C)CCC3(C)C)o1
Result: -7

====

Known remaining activity at 10 µM of a selection of compounds
- measured-target: human GnRH receptor (Homo sapiens, UniProt P30968)
- Construct: expressed in transfected cells; host or cells: HEK 293 (hGnRH-R/293, from Dr. Stuart Sealfon)
- Sequence (P30968 1-328): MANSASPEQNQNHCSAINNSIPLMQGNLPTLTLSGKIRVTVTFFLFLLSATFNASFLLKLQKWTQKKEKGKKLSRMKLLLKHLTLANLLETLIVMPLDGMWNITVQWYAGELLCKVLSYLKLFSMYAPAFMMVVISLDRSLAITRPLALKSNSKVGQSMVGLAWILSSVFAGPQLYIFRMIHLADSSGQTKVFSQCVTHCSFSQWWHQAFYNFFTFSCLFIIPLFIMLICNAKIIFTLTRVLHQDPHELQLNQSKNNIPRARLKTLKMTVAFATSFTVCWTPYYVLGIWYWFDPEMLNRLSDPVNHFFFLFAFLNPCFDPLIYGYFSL
- assay-remarks: Radioligand binding, 125I-GnRH-A displacement, membranes of HEK 293 cells with human GnRH receptor
- condition-label: 1 h, substrate remaining; 10 uM compound; closer to zero = closer to 100% inhibition; read-out: S%R 10 uM hGnRHR
Express it in %; write the number only.

Examples from the recorded data:
compound: Cc1cc2c(cc1Cc1ccc(C(=O)Nc3ccc(CCO)cc3)o1)C(C)(C)CCC2(C)C [Compound 323]
remaining activity at 10 µM, %: 1
//
compound: COc1cccc(C)c1NC(=O)c1ccc(Cc2cc3c(cc2C)C(C)(C)CCC3(C)C)o1 [Compound 378]
remaining activity at 10 µM, %: -4
//
compound: Cc1cnc(NC(=O)c2ccc(Cc3cc4c(cc3C)C(C)(C)CCC4(C)C)o2)s1 [Compound 331]
remaining activity at 10 µM, %: 49

Task: Entry COc1ccc(NC(=O)c2ccc(Cc3cc4c(cc3C)C(C)(C)CCC4(C)C)o2)cn1 [Compound 325] : reported remaining activity at 10 µM = ?
Result: 3

Task: Field entry: COc1ccc(OC)c(NC(=O)c2ccc(Cc3cc4c(cc3C)C(C)(C)CCC4(C)C)o2)c1 [Compound 330]
Result: 10

Task: Please give the result for Cc1cc2c(cc1Cc1ccc(C(=O)Nc3ncccc3O)o1)C(C)(C)CCC2(C)C [Compound 369] too.
Result: 11

Task: Next: Cc1cc2c(cc1Cc1ccc(C(=O)Nc3c(Cl)cc(Cl)cc3C(F)(F)F)o1)C(C)(C)CCC2(C)C [Compound 395]
Result: 40

Task: Same thing, different compound: Cc1cc2c(cc1Cc1ccc(C(=O)Nc3nnc(C4CC4)s3)o1)C(C)(C)CCC2(C)C [Compound 336]
Result: 57

====

- measured-target: human GnRH receptor (Homo sapiens)
- Construct: expressed in transfected cells; host or cells: HEK 293 (hGnRH-R/293, from Dr. Stuart Sealfon)
- assay-remarks: Radioligand binding, 125I-GnRH-A displacement, membranes of HEK 293 cells with human GnRH receptor
- condition-label: means ± SE of at least three experiments performed in duplicate; read-out: Human IC50
- Method: All compounds were diluted in 1% DMSO (final assay concentration) in binding assay buffer. […] Reactions were terminated by rapid filtration onto 96-well Packard GF/C filters soaked in 0.1% polyethyleneimine. Filters were washed three times with PBS buffer, dried and counted on a Packard Topcount by liquid scintillation counting. […] The reaction mixture was vortexed and incubated for 1 min at room temperature. […] Fractions were assessed for biological activity by radioligand binding. […]
measured-parameter: pIC50
Field pIC50 (float): negative decimal logarithm of the concentration in molar.

Use the examples below as a reference point.
compound: Cc1cc2c(cc1Cc1ccc(C(=O)NC[C@H]3CC[C@H](C(=O)O)CC3)o1)C(C)(C)CCC2(C)C
pIC50: 6.64
//
compound: Cc1cc2c(cc1Cc1ccc(C(=O)NCC3CCCC(CNc4nccc(NCC5CCCO5)n4)C3)o1)C(C)(C)CCC2(C)C (stereo not shown)
pIC50: 6.72
//
compound: Cc1ccc(CNC(=O)c2ccc(Cc3cc4c(cc3C)C(C)(C)CCC4(C)C)o2)cc1C
pIC50: 7.26

Task: Report pIC50 for CC(=O)c1cccc(NC(=O)c2ccc(Cc3cc4c(cc3C)C(C)(C)CCC4(C)C)o2)c1 please.
Result: 7.30

Task: Again, but for CCNC(=O)[C@@H]1CCCN1C(=O)[C@H](CCCNC(=N)N)NC(=O)[C@H](CC(C)C)NC(=O)[C@@H](C)NC(=O)[C@H](Cc1ccc(O)cc1)NC(=O)[C@H](CO)NC(=O)[C@H](Cc1c[nH]c2ccccc12)NC(=O)[C@H](Cc1c[nH]cn1)NC(=O)[C@@H]1CCC(=O)N1 [GnRH-A, [des-Gly^10,D-Ala^6]GnRH ethylamide, reference compound]
Result: 9.47

Task: Queued: Cc1cc2c(cc1Cc1ccc(C(=O)NCC3CCC(C#N)CC3)o1)C(C)(C)CCC2(C)C (stereo not shown)
Result: 7.52

Task: Likewise for Cc1cc2c(cc1Cc1ccc(C(=O)NCc3cccc(C)c3C)o1)C(C)(C)CCC2(C)C ?
Result: 7.10
